# Test system: Staphylococcus aureus
# EXPERIMENT: Antibacterial activity against Staphylococcus aureus by broth dilution assay
# Type: functional
Where a SMILES comes first, the peptide text is derived from it. [ ]: non-standard residue; d: D form. The star is where a group is joined. Tridecanoyl(3R-OH,11-Me) = CCC(C)CCCCCCC[C@@H](O)CC(=O)*; X2 = CCC(C)CC(C)CCCCC[C@@H](O)CC(=O)*; X1 = CCC(C)CC(C)CCCC[C@@H](O)CC(=O)*
OBSERVED_PROPERTY: MIC (µg/mL)
One number for each entry, in µg/mL.

Example cases with answers are listed next.
* CCC(C)CC(C)CCCC[C@@H](O)CC(=O)N[C@@H](CCC(=O)O)C(=O)N[C@@H](CC(C)C)C(=O)N[C@@H](CC(C)C)C(=O)N[C@@H](CC(C)C)C(=O)O (some centres undefined) (X1-ELLL-OH) | 0.03
* CCC(C)CC(C)CCCCC[C@@H](O)CC(=O)N[C@@H](CCC(=O)O)C(=O)N[C@@H](CC(C)C)C(=O)N[C@@H](CC(C)C)C(=O)N[C@@H](C(=O)N[C@@H](CC(=O)O)C(=O)N[C@@H](CC(C)C)C(=O)N[C@@H](CC(C)C)C(=O)O)C(C)C (some centres undefined) (X2-ELL[dV]DLL-OH) | 16
* CCC(C)CCCCCCC[C@@H](O)CC(=O)N[C@@H](CCC(=O)OC)C(=O)N[C@@H](CC(C)C)C(=O)N[C@@H](CC(C)C)C(=O)N[C@@H](CC(C)C)C(=O)O (stereo partly drawn) ({Tridecanoyl(3R-OH,11-Me)}-E(OMe)LLL-OH) | 0.03
* C[C@@H]1CCC/C=C/C=C/[C@H](O)C[C@@H](O)[C@H](O)/C=C\C=C\[C@H](O)C/C=C/C=C\C(=O)O1 | 0.1
* CCC(C)CCCCCCC[C@@H](O)CC(=O)N[C@@H](CCC(=O)O)C(=O)N[C@@H](CC(C)C)C(=O)O (some centres undefined) | 0.01
* C[C@@H]1CCC/C=C/C=C/[C@H](O)C[C@@H](O)C[C@@H]2O[C@@H]2/C=C/[C@@H](O)C/C=C/C=C\C(=O)O1 [GAGEOMACROLACTIN 1] | 0.01
* C[C@@H]1CCC/C=C/C=C/[C@H](O)C[C@@H](O)[C@H](O)/C=C\C=C\[C@@H](O)C/C=C/C=C\C(=O)O1 | 0.1
* CCC(C)CCCCCCC[C@@H](O)CC(=O)N[C@@H](CCC(=O)O)C(=O)N[C@@H](CC(C)C)C(=O)N[C@@H](CC(C)C)C(=O)N[C@@H](C(=O)N[C@@H](CC(=O)O)C(=O)N[C@@H](CC(C)C)C(=O)N[C@@H](CC(C)C)C(=O)O)C(C)C (stereo partly drawn) ({Tridecanoyl(3R-OH,11-Me)}-ELL[dV]DLL-OH) | 16

Could you now look at the following compound, please?
Exam item: In one line, give reported MIC of the entry C[C@@H]1CCCCC/C=C/[C@H](O)C[C@@H](O)C/C=C\C=C\[C@@H](O[C@@H]2O[C@H](CO)[C@@H](O)[C@H](O)[C@H]2O)C/C=C/C=C\C(=O)O1 .
Marked response: 0.06

----------
# Tested on: Salmonella typhi
# EXPERIMENT: Antibacterial activity against Salmonella typhi by broth dilution assay
# Type: functional, Salmonella enterica subsp. enterica serovar Typhi
# STUDY_CONDITIONS: Salmonella enterica
Where a SMILES comes first, the peptide text is derived from it. [ ]: non-standard residue; d: D form. The star is where a group is joined. Tridecanoyl(3R-OH,11-Me) = CCC(C)CCCCCCC[C@@H](O)CC(=O)*; X2 = CCC(C)CC(C)CCCCC[C@@H](O)CC(=O)*; X1 = CCC(C)CC(C)CCCC[C@@H](O)CC(=O)*
OBSERVED_PROPERTY: log10 MIC (log10 of the value in µg/mL)
Recorded MIC (log10, µg/mL)

Example cases with answers are listed next.
- CCC(C)CCCCCCC[C@@H](O)CC(=O)N[C@@H](CCC(=O)O)C(=O)N[C@@H](CC(C)C)C(=O)N[C@@H](CC(C)C)C(=O)N[C@@H](C(=O)N[C@@H](CC(=O)O)C(=O)N[C@@H](CC(C)C)C(=O)N[C@@H](CC(C)C)C(=O)O)C(C)C (stereo partly drawn) ({Tridecanoyl(3R-OH,11-Me)}-ELL[dV]DLL-OH): 1.20
- C[C@@H]1CCC/C=C/C=C/[C@H](O)C[C@@H](O)C[C@@H]2O[C@@H]2/C=C/[C@@H](O)C/C=C/C=C\C(=O)O1: -1.70
- CCC(C)CC(C)CCCC[C@@H](O)CC(=O)N[C@@H](CCC(=O)O)C(=O)N[C@@H](CC(C)C)C(=O)N[C@@H](CC(C)C)C(=O)N[C@@H](CC(C)C)C(=O)O (some centres not stated) (X1-ELLL-OH): -2.00

For each listed entry, give its log10 MIC.
1. CCC(C)CC(C)CCCCC[C@@H](O)CC(=O)N[C@@H](CCC(=O)O)C(=O)N[C@@H](CC(C)C)C(=O)N[C@@H](CC(C)C)C(=O)N[C@@H](C(=O)N[C@@H](CC(=O)O)C(=O)N[C@@H](CC(C)C)C(=O)N[C@@H](CC(C)C)C(=O)O)C(C)C (some centres not stated) (X2-ELL[dV]DLL-OH)
2. C[C@@H]1CCCCC/C=C/[C@H](O)C[C@@H](O)C/C=C\C=C\[C@@H](O[C@@H]2O[C@H](CO)[C@@H](O)[C@H](O)[C@H]2O)C/C=C/C=C\C(=O)O1
3. CCC(C)CCCCCCC[C@@H](O)CC(=O)N[C@@H](CCC(=O)OC)C(=O)N[C@@H](CC(C)C)C(=O)N[C@@H](CC(C)C)C(=O)N[C@@H](CC(C)C)C(=O)O (stereo partly drawn) ({Tridecanoyl(3R-OH,11-Me)}-E(OMe)LLL-OH)
4. CCC(C)CCCCCCC[C@@H](O)CC(=O)N[C@@H](CCC(=O)O)C(=O)N[C@@H](CC(C)C)C(=O)O (some centres not stated)

Marked response:
[1.51, -1.52, -2.00, -1.52]
